Listing of IC50 toward Vascular endothelial growth factor receptor 1 (Homo sapiens), each taken from a published source.

Consider the worked cases shown below.
compound: COC(=O)CCNC(=O)c1c[nH]c(-c2cc(Oc3cc(C(=O)Nc4cc(C)ccc4F)ccc3F)ccn2)c1
system-name: Vascular endothelial growth factor receptor 1 (Homo sapiens)
IC50: 23 nM

compound: COc1cc(Nc2ncnc(-c3cccnc3NCc3ccc(F)cc3)n2)cc(OC)c1OC
system-name: Vascular endothelial growth factor receptor 1 (Homo sapiens)
IC50: > 9730 nM

compound: Cc1ccoc1C(=O)Nc1cc(Oc2ccnc(-c3cc(C(=O)NCCCN4CCCCC4)c[nH]3)c2)ccc1F
system-name: Vascular endothelial growth factor receptor 1 (Homo sapiens)
IC50: 42 nM

compound: COc1cc(Nc2ncnc(-n3ccc4ccccc43)n2)cc(OC)c1OC
system-name: Vascular endothelial growth factor receptor 1 (Homo sapiens)
IC50: 1060 to 6360 nM

compound: O=S(=O)(NCc1c[nH]c2ncccc12)c1cc(Cl)c(Cl)s1
system-name: Vascular endothelial growth factor receptor 1 (Homo sapiens)
IC50: ≤ 10000 nM

Q: Consider the compound COC(=O)[C@@H]1C[C@@H](O)CN1CCCNC(=O)c1c[nH]c(-c2cc(Oc3ccc(NC(=O)Nc4cc(C)ccc4F)c(F)c3)ccn2)c1 (relative stereo) and give its recorded IC50.
Ans: 10 nM

Q: Consider the compound COc1cc(Nc2ncnc(Nc3ccc(N(C)C)cc3)n2)cc(OC)c1OC and give its recorded IC50.
Ans: < 1010 nM

Q: Consider the compound COc1cnc2[nH]cc(Cc3c(F)ccc(NC(=O)NC4CCCC4)c3F)c2c1 and give its recorded IC50.
Ans: ≤ 10000 nM

Q: Consider the compound COC(=O)[C@@H]1CCCN1CCCNC(=O)c1c[nH]c(-c2cc(Oc3cc(C(=O)Nc4cc(C)ccc4F)ccc3F)ccn2)c1 and give its recorded IC50.
Ans: 39 nM

Q: Consider the compound COc1cc(Nc2ncnc(Nc3ccc(C)c(F)c3)n2)cc(OC)c1OC and give its recorded IC50.
Ans: > 11700 nM

Q: Consider the compound Cc1ccc(F)c(NC(=O)Nc2ccc(Oc3ccnc(-c4cc(C(=O)NN)c[nH]4)c3)cc2)c1 and give its recorded IC50.
Ans: 19 nM

---

Listing of IC50 toward Vascular endothelial growth factor receptor 1 (Homo sapiens), each taken from a published source.

molecule: CCCCS(=O)(=O)Nc1ccc(F)c(C(=O)c2c[nH]c3ncc(-c4cnn(C)c4)cc23)c1
system-name: Vascular endothelial growth factor receptor 1 (Homo sapiens)
observed-measurement: ≤ 10 µM

Q: Consider the molecule OC(c1c(F)ccc(F)c1F)c1c[nH]c2ncc(-c3cccnc3)cc12 (stereo not shown) and give its recorded IC50.
Ans: ≤ 10 µM

Q: Consider the molecule CCN1CCC(Oc2ccc3c(c2)/C(=C(\c2cccc(Cl)c2)c2nc4ccccc4[nH]2)C(=O)N3)CC1 and give its recorded IC50.
Ans: 0.05 to 0.5 µM

Q: Consider the molecule COc1cc(Cc2c[nH]c3ncccc23)ccc1OCc1ccc(Cl)cc1 and give its recorded IC50.
Ans: ≤ 10 µM

Q: Consider the molecule Cn1cc(C(F)(F)F)c(-c2ccc(S(=O)(=O)NCc3c[nH]c4ncccc34)s2)n1 and give its recorded IC50.
Ans: ≤ 10 µM

Q: Consider the molecule COc1cnc2[nH]cc(Cc3cc(F)c(OCc4nc5ccccc5[nH]4)cc3F)c2c1 and give its recorded IC50.
Ans: ≤ 10 µM

Q: Consider the molecule O=C(Nc1ccc(F)c(C(=O)c2c[nH]c3ncc(-c4cccnc4)cc23)c1F)OCc1ccccc1 and give its recorded IC50.
Ans: ≤ 10 µM

Q: Consider the molecule COc1cc(Nc2ncnc(Nc3ccc(C(N)=O)cc3)n2)cc(OC)c1OC and give its recorded IC50.
Ans: > 11.4 µM

---

Listing of IC50 toward Vascular endothelial growth factor receptor 1 (Homo sapiens, UniProt P17948), each taken from a published source.

Consider the worked cases shown below.
compound: c1coc(-c2cc(Nc3ncnc(Nc4ccc(N5CCOCC5)cc4)n3)[nH]n2)c1
IC50: < 0.989 µM
//
compound: CC(=O)Nc1ccc(F)c(C(=O)c2c[nH]c3ncc(-c4cccnc4)cc23)c1F
IC50: ≤ 10 µM
//
compound: NC(=O)c1ccc(Nc2ncnc(-n3c(N)nc4ccccc43)n2)cc1
IC50: < 1.15 µM
//
compound: COc1ccc(Nc2ncnc(-n3c(N)nc4ccccc43)n2)cc1O
IC50: < 1.14 µM

Q: Print Vascular endothelial growth factor receptor 1 (Homo sapiens, UniProt P17948) IC50 for OC(c1c(Cl)ccc(OCC(F)(F)F)c1F)c1c[nH]c2ncc(Br)cc12 (stereo not shown) .
Ans: ≤ 10 µM

Q: Print Vascular endothelial growth factor receptor 1 (Homo sapiens, UniProt P17948) IC50 for CS(=O)(=O)Nc1ccc(F)c(Cc2c[nH]c3ncc(-c4cccnc4)cc23)c1F .
Ans: ≤ 10 µM

Q: Print Vascular endothelial growth factor receptor 1 (Homo sapiens, UniProt P17948) IC50 for COC(=O)CCCCS(=O)(CCCCC(=O)OC)=NC(=O)c1cnc(N)c(C#Cc2cccc(C(=O)Nc3ccc(Cl)c(C(F)(F)F)c3)c2)c1 .
Ans: 0.032 µM

Q: Print Vascular endothelial growth factor receptor 1 (Homo sapiens, UniProt P17948) IC50 for COc1cc(Nc2ncnc(-n3c(NCc4ccccn4)nc4ccccc43)n2)cc(OC)c1OCCn1ccnn1 .
Ans: < 0.707 µM

Q: Print Vascular endothelial growth factor receptor 1 (Homo sapiens, UniProt P17948) IC50 for CCCS(=O)(=O)Nc1ccc(F)c(C(=O)c2c[nH]c3ncc(-c4ccc(F)cc4)cc23)c1F .
Ans: ≤ 10 µM

Q: Print Vascular endothelial growth factor receptor 1 (Homo sapiens, UniProt P17948) IC50 for CCN(CC)c1ccc(Nc2ccnc3[nH]ccc23)cc1 .
Ans: ≤ 10 µM

---

Listing of IC50 toward Vascular endothelial growth factor receptor 1 (Homo sapiens, UniProt P17948), each taken from a published source.

cpd-smiles: COCCN1CCC(Nc2ccc3c(c2)/C(=C(\c2ccc(F)cc2)c2nc4ccccc4[nH]2)C(=O)N3)CC1
readout-type: IC50
observed-measurement: 0.5 to 5 µM
//
cpd-smiles: COc1cc(Nc2ncnc(-n3c(N)nc4cc([N+](=O)[O-])ccc43)n2)cc(OC)c1OC
readout-type: IC50
observed-measurement: > 10.3 µM
//
cpd-smiles: Cc1ccccc1C(=O)c1c[nH]c2ncc(-c3ccsc3)cc12
readout-type: IC50
observed-measurement: ≤ 10 µM
//
cpd-smiles: CS(=O)(=O)c1cccc(-c2cnc3[nH]cc(C(=O)c4cccc(O)c4F)c3c2)c1
readout-type: IC50
observed-measurement: ≤ 10 µM
//
cpd-smiles: COc1cc(Nc2ncnc(Nc3cc(F)ccc3F)n2)cc(OC)c1OC
readout-type: IC50
observed-measurement: 8.99 to 11.6 µM

Q: Consider the molecule COC(=O)CCCCS(=O)(CCCCC(=O)OC)=NC(=O)c1cnc(N)c(C#Cc2cccc(NC(=O)c3occc3C)c2)c1 and give its recorded IC50.
Ans: 0.01 µM

Q: Consider the molecule CC(C)(C)OC(=O)N(Cc1ccc(Cl)cc1)c1ccc(C(=O)c2c[nH]c3ncccc23)cn1 and give its recorded IC50.
Ans: ≤ 10 µM

Q: Consider the molecule COc1cc(Nc2ncnc(-n3c(Nc4ccc(C(C)C)cc4)nc4ccccc43)n2)cc(OC)c1OC and give its recorded IC50.
Ans: > 8.8 µM

Q: Consider the molecule Cn1cc(-c2cnc3[nH]cc(C(=O)c4cc(NS(=O)(=O)c5cccc(F)c5)ccc4F)c3c2)cn1 and give its recorded IC50.
Ans: ≤ 10 µM

Q: Consider the molecule Cc1ccc(F)c(NC(=O)c2ccc(F)c(Oc3ccnc(-c4cc(C(=O)NCCCN5CCC(O)CC5)c[nH]4)c3)c2)c1 and give its recorded IC50.
Ans: 0.051 µM

---

Listing of IC50 toward Vascular endothelial growth factor receptor 1 (Homo sapiens, UniProt P17948), each taken from a published source.

Q: Consider the compound Cc1ccccc1S(=O)(=O)NCc1c[nH]c2ncccc12 and give its recorded IC50.
Ans: ≤ 10000 nM

Q: Consider the compound COCCOc1ccc(Nc2ncnc(-n3c(N)nc4ccccc43)n2)cc1OCCOC and give its recorded IC50.
Ans: > 9970 nM

Q: Consider the compound O=C1Nc2ccc(OC3CCN(Cc4ccccc4)CC3)cc2/C1=C(\c1ccccc1)c1nc2ccccc2[nH]1 and give its recorded IC50.
Ans: 500 to 5000 nM

Q: Consider the compound O=C(NCc1ccccc1)c1ccc(-c2c[nH]c3ncccc23)cc1 and give its recorded IC50.
Ans: ≤ 10000 nM

Q: Consider the compound CCCCCCCCCCCCCCCCCCOc1ccc(CCC(=O)Nc2ccc(Oc3ccc(C(=O)O)cc3)c(C(=O)O)c2)cc1 and give its recorded IC50.
Ans: 680 nM

Q: Consider the compound COc1cc(Nc2ncnc(Nc3ccc4cn[nH]c4c3)n2)cc(OC)c1OC and give its recorded IC50.
Ans: < 1020 nM

Q: Consider the compound COc1cc(Nc2ncnc(-n3c(NCc4ccccc4F)nc4ccccc43)n2)cc(OC)c1OC and give its recorded IC50.
Ans: 798 to 4790 nM

Q: Consider the compound COc1cc(Nc2ncnc(Nc3ccc(C)c(NS(C)(=O)=O)c3)n2)cc(OC)c1OC and give its recorded IC50.
Ans: 869 to 5210 nM
